Test system: complementary RNA
procedure_summary: Thermal denaturation (UV melting) of AON duplexes with complementary RNA
Assay type: binding
recorded_conditions: relative to native AON 1/RNA duplex
measurement_label: ΔTm (Tm relative to RNA compliment)

Observe how each entry below is paired with its result.
substance	ΔTm (Tm relative to RNA compliment)
3′-d(CTT(5-carbo)CTTTTTTACTTC)-5′ (antisense CTTCTTTTTTACTTC; carbocyclic-LNA-T at position 3 from 3'-end, chemistry not fully specified) [AON 6, carbocyclic-LNA-T modified AON, position 3 from 3′-end]	+3.5 °C
3′-d(CTTCTT(6-carbo)TTTTACTTC)-5′ [AON 11]	+1.5 °C
3′-d(CTTCTTTT(5-carbo)TTACTTC)-5′ (antisense CTTCTTTTTTACTTC; carbocyclic-LNA-T at position 8 from 3'-end, chemistry not fully specified) [AON 8, carbocyclic-LNA-T modified AON, position 8 from 3′-end]	+4 °C

Ask: Consider the substance shown here: 3′-d(CTTCTTTTTT(5-carbo)ACTTC)-5′ (antisense CTTCTTTTTTACTTC; carbocyclic-LNA-T at position 10 from 3'-end, chemistry not fully specified) [AON 9, carbocyclic-LNA-T modified AON, position 10 from 3′-end] What is its recorded ΔTm (Tm relative to RNA compliment)?
Result: +3.5 °C

----------
System: complementary RNA
procedure_summary: Thermal denaturation (UV melting) of AON duplexes with complementary RNA
Assay type: binding
recorded_conditions: relative to native AON 1/RNA duplex
Quick reference: ΔTm (Tm relative to RNA compliment) of the listed items.

Observe how each entry below is paired with its result.
substance	measurement_label	measured_value
3′-d(CTTCTTTT(LNA)TTACTTC)-5′ (antisense CTTCTTTTTTACTTC; LNA-T at position 8 from 3'-end, chemistry not fully specified) [AON 4, LNA-T modified AON, position 8 from 3′-end]	ΔTm (Tm relative to RNA compliment)	+5 °C
3′-d(CTTCTTTTTT(6-carbo)ACTTC)-5′ [AON 13]	ΔTm (Tm relative to RNA compliment)	+1.5 °C

Next item in the queue.
Ask: Consider the substance shown here: 3′-d(CTTCTT(aza-ENA)TTTTACTTC)-5′ (antisense CTTCTTTTTTACTTC; aza-ENA-T at position 6 from 3'-end, chemistry not fully specified) [AON 15, aza-ENA-T modified AON, position 6 from 3′-end] What is its recorded ΔTm (Tm relative to RNA compliment)?
Result: +2.5 °C

These measurements were taken from patent US8461124B2.
